# credit: PubChem BioAssay AID1851

Measured activity, negative = inhibition, listed per entry for reference.
# Assayed target: Cytochrome P450 2D6 (Homo sapiens)
# Assay name: Cytochrome panel assay with activity outcomes; for activity, negative = inhibition: % is set by controls: 0 for no effect and ±100 for the full control effect
# Study conditions: recombinant CYP, pro-luciferin dealkylation, luminescence, p450-cyp2d6; series mostly up to 57.1 µM
In all, about 16,000 compounds went through this assay and about 2,600 (16%) were called active. Inconclusive results (about 20%) are left out. Only a sample is shown.
Recorded endpoint: activity, negative = inhibition

In [3]: df
Out[3]:
                              smiles_string                      assayed_target                recorded_endpoint                  measured_result
0  C[C@H]1CC[C@H]2C(=O)N3[C@H](c4ccc(Br)cc4)[C@@H](C)CC[C@H]3C(=O)N2[C@@H]1c1ccc(Br)cc1  Cytochrome P450 2D6 (Homo sapiens)  activity, negative = inhibition   -7.03% [at 11.4 µM] (inactive)
1          C[C@](O)(c1ccccc1)c1nccc2ccccc12  Cytochrome P450 2D6 (Homo sapiens)  activity, negative = inhibition   -11.5% [at 11.4 µM] (inactive)
2        N[C@@](CCc1ccccc1)(C(=O)O)c1ccccc1  Cytochrome P450 2D6 (Homo sapiens)  activity, negative = inhibition   0.379% [at 11.4 µM] (inactive)
3  CC1=NNC(=S)NCCCN2CCN(CCCNC(=S)NN=C(C)C=NNC(=S)NCCCN3CCN(CCCNC(=S)NN=C1)CC3)CC2  Cytochrome P450 2D6 (Homo sapiens)  activity, negative = inhibition  -0.261% [at 11.4 µM] (inactive)
4  O=C(CSc1nc2ccccc2s1)c1sc2sc3ccccc3[n+]2c1O  Cytochrome P450 2D6 (Homo sapiens)  activity, negative = inhibition   -14.5% [at 11.4 µM] (inactive)
5  C[C@@H]1CC[C@H]2C(=O)N3[C@@H](CC[C@@H](C)[C@@H]3c3ccc(Br)cc3)C(=O)N2[C@@H]1c1ccc(Br)cc1  Cytochrome P450 2D6 (Homo sapiens)  activity, negative = inhibition   -14.2% [at 11.4 µM] (inactive)
6  CO[C@@H]1COC(=O)[C@H](COCc2ccccc2)NC(=O)C/C=C\[C@@H](C)[C@H](OC)COC(=O)[C@@H](C)NC(=O)C/C=C\[C@H]1C  Cytochrome P450 2D6 (Homo sapiens)  activity, negative = inhibition  0.0549% [at 11.4 µM] (inactive)
7  O=C1CCC[C@@H](C(C(=O)OCc2ccccc2)C(=O)OCc2ccccc2)C1  Cytochrome P450 2D6 (Homo sapiens)  activity, negative = inhibition   -12.9% [at 11.4 µM] (inactive)

###

Form field: activity, negative = inhibition (one value per entry).
# Assayed target: Cytochrome P450 2D6 (Homo sapiens)
# Assay name: Cytochrome panel assay with activity outcomes; for activity, negative = inhibition: % is set by controls: 0 for no effect and ±100 for the full control effect
# Study conditions: recombinant CYP, pro-luciferin dealkylation, luminescence, p450-cyp2d6; series mostly up to 57.1 µM
The whole screen tested about 16,000 compounds, of which about 2,600 (16%) were called active. Another 20% or so got no clear call; they are omitted. The list is a sample of the results.
Recorded endpoint: activity, negative = inhibition

>>> df
                              smiles_string                recorded_endpoint                  measured_result
0                          CC(=O)C=NCC(=O)O  activity, negative = inhibition   -2.95% [at 11.4 µM] (inactive)
1  OCCNc1ncnc2c1ncn2[C@@H]1O[C@@H](CO)[C@H](O)[C@@H]1O  activity, negative = inhibition    3.15% [at 11.4 µM] (inactive)
2   Cc1ccc(S(=O)(=O)Oc2cc(N)c3c(n2)CCC3)cc1  activity, negative = inhibition   -20.4% [at 11.4 µM] (inactive)
3  Cc1cc2c(nc1C)CCCN2C[C@@H](O)CN1CCN(C)CC1  activity, negative = inhibition   -5.57% [at 11.4 µM] (inactive)
4  CC(C)[C@]1(Cl)CC[C@@H]2[C@]3(C)CCC[C@@](C)(C(=O)O)[C@H]3C[C@H](Cl)[C@@]2(Cl)[C@H]1Cl  activity, negative = inhibition    4.09% [at 11.4 µM] (inactive)
5        N#C[C@@H](N=Nc1ccccc1C(=O)O)C(N)=O  activity, negative = inhibition  -0.182% [at 11.4 µM] (inactive)

###

# Assayed target: Cytochrome P450 2D6 (Homo sapiens) (UniProt P10635)
# Sequence (P10635 whole entry, looked up): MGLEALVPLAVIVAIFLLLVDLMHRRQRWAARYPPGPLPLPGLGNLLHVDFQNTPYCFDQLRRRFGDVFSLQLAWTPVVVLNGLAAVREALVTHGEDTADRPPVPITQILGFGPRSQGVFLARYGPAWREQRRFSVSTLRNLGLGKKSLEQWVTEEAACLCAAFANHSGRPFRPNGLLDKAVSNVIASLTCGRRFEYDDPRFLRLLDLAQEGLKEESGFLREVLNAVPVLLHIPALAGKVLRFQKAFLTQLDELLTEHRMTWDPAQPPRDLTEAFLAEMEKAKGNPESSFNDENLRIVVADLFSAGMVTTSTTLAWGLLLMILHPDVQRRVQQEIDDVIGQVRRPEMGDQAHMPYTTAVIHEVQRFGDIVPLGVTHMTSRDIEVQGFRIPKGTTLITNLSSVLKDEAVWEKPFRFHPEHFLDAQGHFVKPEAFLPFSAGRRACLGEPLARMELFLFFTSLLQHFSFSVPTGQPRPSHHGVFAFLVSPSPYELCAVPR
# Assay name: Cytochrome panel assay with activity outcomes
# Study conditions: recombinant CYP, pro-luciferin dealkylation, luminescence, p450-cyp2d6; series mostly up to 57.1 µM
Hit rate of the full screen: of about 16,000 compounds, about 2,600 (16%) were called active. Inconclusive results (about 20%) are left out. Calls follow the shape of the dose curve; as a rule, active = well fitted curve in the direction sought with a large enough effect; inconclusive = small, poorly fitted or top-dose-only effect, or effect the other way; inactive = no such curve, though single readings can be large or run the other way. These entries were drawn from the full list.
Possible outcomes: class 1 = active, class 0 = inactive

In [3]: df
Out[3]:
                                    molecule                            assayed_target  assigned_label
 0  COc1ccc(C2N(c3ccccn3)C(=O)C3CCCN32)c(OC)c1 (centres undefined)  Cytochrome P450 2D6 (Homo sapiens) (UniProt P10635)         class 0
 1           Cc1cccc(CNc2ncncc2-c2ccccc2C)c1  Cytochrome P450 2D6 (Homo sapiens) (UniProt P10635)         class 1
 2         CN(C)c1ncnc2ccc(-c3ccccc3C#N)cc12  Cytochrome P450 2D6 (Homo sapiens) (UniProt P10635)         class 0
 3  CN(C)C(=O)c1ccc(-c2ccc3ncnc(N(C)C)c3c2)cc1  Cytochrome P450 2D6 (Homo sapiens) (UniProt P10635)         class 0
 4         Cc1noc(C)c1-c1ccc2ncnc(N(C)C)c2c1  Cytochrome P450 2D6 (Homo sapiens) (UniProt P10635)         class 0
 5  Cn1c(=O)c(-c2ccc(F)cc2)nc2cnc(N3CCOCC3)nc21  Cytochrome P450 2D6 (Homo sapiens) (UniProt P10635)         class 0
 6         CN(C)Cc1ccccc1-c1cncnc1NCc1cccnc1  Cytochrome P450 2D6 (Homo sapiens) (UniProt P10635)         class 1
 7           Cc1ccccc1-c1ccc2ncnc(N(C)C)c2c1  Cytochrome P450 2D6 (Homo sapiens) (UniProt P10635)         class 1
 8  COc1ccc(C(=O)N/N=C2/SCC(=O)N2Cc2ccc3c(c2)OCO3)cc1OC  Cytochrome P450 2D6 (Homo sapiens) (UniProt P10635)         class 1
 9  COC(=O)c1ccccc1NC(=O)c1ccc(COc2ccc(C)c(C)c2)o1  Cytochrome P450 2D6 (Homo sapiens) (UniProt P10635)         class 0
10  CN(Cc1ccco1)c1ncnc2ccc(-c3cccc(NS(C)(=O)=O)c3)cc12  Cytochrome P450 2D6 (Homo sapiens) (UniProt P10635)         class 1
11  CCCC12CN3CC(CCC)(CN(C1)C3C(O)C(O)C(O)CO)C2=O (centres undefined)  Cytochrome P450 2D6 (Homo sapiens) (UniProt P10635)         class 0
12   CN(C)C(=O)c1ccc(-c2cncnc2NCc2cccnc2)cc1  Cytochrome P450 2D6 (Homo sapiens) (UniProt P10635)         class 0
13  CS(=O)(=O)Nc1cccc(-c2ccc3ncnc(N4CCOCC4)c3c2)c1  Cytochrome P450 2D6 (Homo sapiens) (UniProt P10635)         class 0
14                CCOc1ccc(C(=O)CCC(=O)O)cc1  Cytochrome P450 2D6 (Homo sapiens) (UniProt P10635)         class 0
15            Cc1noc(C)c1-c1cncnc1NCc1ccccc1  Cytochrome P450 2D6 (Homo sapiens) (UniProt P10635)         class 0
16            CCCCOc1ccc(C(=O)CCN2CCCCC2)cc1  Cytochrome P450 2D6 (Homo sapiens) (UniProt P10635)         class 1
17  CCOC(=O)C1=C(O)C(Nc2nccs2)(C(F)(F)F)N=C1C (centres undefined)  Cytochrome P450 2D6 (Homo sapiens) (UniProt P10635)         class 0
18     CN(Cc1ccco1)c1ncnc2ccc(-c3cccnc3)cc12  Cytochrome P450 2D6 (Homo sapiens) (UniProt P10635)         class 1
19  Cc1ccc(-n2c(C)nnc2SCC(=O)N2CCc3ccccc3C2)cc1C  Cytochrome P450 2D6 (Homo sapiens) (UniProt P10635)         class 0
20     CN(C)c1ccc(-c2ccc3ncnc(N(C)C)c3c2)cc1  Cytochrome P450 2D6 (Homo sapiens) (UniProt P10635)         class 0
21     CCCOc1ccc(C(=O)CCNc2ccc(C)c(Cl)c2)cc1  Cytochrome P450 2D6 (Homo sapiens) (UniProt P10635)         class 0
22             CN(C)c1ncnc2ccc(-c3ccoc3)cc12  Cytochrome P450 2D6 (Homo sapiens) (UniProt P10635)         class 1
23               O=C(O)c1nn(-c2ccccc2)ccc1=O  Cytochrome P450 2D6 (Homo sapiens) (UniProt P10635)         class 0
